target-of-assay: beta-catenin (Homo sapiens)
Construct: made in house; host or cells: E. coli BL21 (DE3) pLysS
Sequence (P35222 134-665): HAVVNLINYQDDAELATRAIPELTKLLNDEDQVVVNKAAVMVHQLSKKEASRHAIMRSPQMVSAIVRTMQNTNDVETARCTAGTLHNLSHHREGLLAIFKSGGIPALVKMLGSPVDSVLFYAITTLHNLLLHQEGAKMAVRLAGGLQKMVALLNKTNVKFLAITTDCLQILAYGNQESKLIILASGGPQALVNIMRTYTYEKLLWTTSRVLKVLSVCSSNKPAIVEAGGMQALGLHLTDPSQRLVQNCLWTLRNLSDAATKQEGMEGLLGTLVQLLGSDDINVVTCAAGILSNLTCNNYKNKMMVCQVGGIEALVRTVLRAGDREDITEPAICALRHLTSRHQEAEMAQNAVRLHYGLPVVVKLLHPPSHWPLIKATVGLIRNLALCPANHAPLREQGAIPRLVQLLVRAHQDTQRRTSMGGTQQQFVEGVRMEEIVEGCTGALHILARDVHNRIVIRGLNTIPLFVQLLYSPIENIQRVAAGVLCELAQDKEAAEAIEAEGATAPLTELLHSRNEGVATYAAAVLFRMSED
protocol-summary: Phage Library Screening with NGS, beta-catenin
Assay type: binding
protocol-conditions: beta-catenin target concentration 30; no competitor
Kind request: treat 5 as inclusive, so Target Concentration 30 (phage screen NGS readout) at 5 or higher is T, anything lower is F.

        item_sequence  discrete_label
 0  DPAVLDCHIAALDCHAH               F
 1  DPAIMACYEAAYLCDYI               F
 2  DPAVLECHIAAWECRMD               F
 3  DPAEAICILAAHECWWD               T
 4  DPAIADCDWAAEHCDLL               T
 5  DPAILDCQLAAMDCSTW               T
 6  DPATWHCDWAAEHCELL               T
 7  DPAILDCHIAAIQCFHD               F
 8  DPAMWICEHAALNCEIR               T
 9  DPAIFNCTMAALECTQI               F
10  DPAILNCHMAAWDCNFY               T
11  DPAVLQCYEAAFICEYM               F
12  DPAVFECSLAAIDCLQI               F

====

Some sequences, each annotated with its measured Phage library screen NGS readout, BLANK.
target-of-assay: RNF31 PUB domain (Homo sapiens)
Construct: MBP-TEV (N, cleaved yes); made in house; host or cells: E. coli BL21 (DE3) pLysS
Sequence (Q96EP0 1-179): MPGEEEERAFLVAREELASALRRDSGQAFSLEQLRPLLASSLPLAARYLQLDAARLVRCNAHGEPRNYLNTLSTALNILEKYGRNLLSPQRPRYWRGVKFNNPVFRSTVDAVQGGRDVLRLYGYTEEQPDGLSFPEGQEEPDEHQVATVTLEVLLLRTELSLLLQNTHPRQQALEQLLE
protocol-summary: Phage Library Screening with NGS, RNF31 PUB domain
Assay type: binding
protocol-conditions: clusters C41-C45; BLANK screen, column 5 of 5
Bridge positions count the residues as written; N and C are the ends.
readout-kind: Phage library screen NGS readout, BLANK

In [3]: df
Out[3]:
                               item_sequence  experimental_value
 0                         DPAFWECMYAASDCDAS                   2
 1                         DPAYDLCLNAAVACTYV                   0
 2                         DPAEDECDWAALYCDMQ                   0
 3                         DPALSHCTVAAMVCSTY                   0
 4                         DPAADQCDIAAFVCSTY                   0
 5                         DPAAEDCHIAAMVCMTY                   0
 6                         DPAEWDCLYAAFDCFAN                   0
 7                         DPALRDCLDAAIMCTYT                   0
 8                         DPAYRDCDWAALYCDDF                   1
 9                         DPAWQECVIAALVCDTY                   0
10  DPAIVQCAWAALYCDMQ (Ac-DPAIVQCAWAALYCDMQ-NH2; bridge 7-14; also: Cys-Cys staple, linker not named)                   0
11                         DPAQYQCWNAAMSCSYS                   2
12                         DPAEQFCLYAAYDCYSE                   0
13                         DPALVTCTWAAIYCDDF                   0
14                         DPAIQECYLAAQVCTTY                   0
15                         DPANFTCRVAADVCSTY                   0
16                         DPAYDWCMYAAYNCVED                   0
17                         DPAWESCMYAAYDCDNE                   0
18                         DPAYWHCLYAAASCDDI                   2
19                         DPAEEYCLEAAILCTYD                   0
20                         DPAWMQCMYAAWDCNIE                   0
21                         DPAYSSCSWAAIYCNWT                   1
22                         DPAWDYCMYAAYDCNHS                   1

====

target-of-assay: RNF31 PUB domain (Homo sapiens)
Construct: MBP-TEV (N, cleaved yes); made in house; host or cells: E. coli BL21 (DE3) pLysS
Sequence (Q96EP0 1-179): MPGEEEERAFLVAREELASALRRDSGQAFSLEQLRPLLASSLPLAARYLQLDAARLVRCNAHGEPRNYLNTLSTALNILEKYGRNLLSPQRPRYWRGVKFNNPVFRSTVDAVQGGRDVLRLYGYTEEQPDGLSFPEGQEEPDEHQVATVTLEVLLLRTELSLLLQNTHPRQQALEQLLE
protocol-summary: Phage Library Screening with NGS, RNF31 PUB domain
Assay type: binding
protocol-conditions: clusters C41-C45; BLANK screen, column 3 of 5
# Phage library screen NGS readout, BLANK per entry
readout-kind: Phage library screen NGS readout, BLANK

In [3]: df
Out[3]:
        item_sequence  experimental_value
 0  DPAWEWCLYAAAECIED                   0
 1  DPAIAQCMLAAQVCSTY                   0
 2  DPAQYQCWNAAMSCSYS                   0
 3  DPAWLDCIYAAYDCVTD                   1
 4  DPAEDECDWAALYCDMQ                   0
 5  DPAEDWCMYAAWDCQME                   0
 6  DPAYDYCLYAAYDCTQT                   0
 7  DPAYDYCLYAAQDCVWW                   0
 8  DPAYSLCISAAVECTYY                   0
 9  DPAIQECLLAAATCWTY                   0
10  DPAHTWCMYAAFDCFES                   2

====

target-of-assay: RNF31 PUB domain (Homo sapiens)
Construct: MBP-TEV (N, cleaved yes); made in house; host or cells: E. coli BL21 (DE3) pLysS
Sequence (Q96EP0 1-179): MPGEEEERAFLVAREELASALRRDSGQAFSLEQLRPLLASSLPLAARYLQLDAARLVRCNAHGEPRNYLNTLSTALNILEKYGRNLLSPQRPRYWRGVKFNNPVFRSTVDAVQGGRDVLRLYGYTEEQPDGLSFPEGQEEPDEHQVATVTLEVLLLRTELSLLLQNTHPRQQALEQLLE
protocol-summary: Phage Library Screening with NGS, RNF31 PUB domain
Assay type: binding
protocol-conditions: clusters C41-C45; BLANK screen, column 3 of 5
readout-kind: Phage library screen NGS readout, BLANK

In [3]: df
Out[3]:
       item_sequence                  target_of_assay                             readout_kind  experimental_value
0  DPAVVDCWDAAVQCTYY  RNF31 PUB domain (Homo sapiens)  Phage library screen NGS readout, BLANK                   0
1  DPAQEECFEAAVFCSYY  RNF31 PUB domain (Homo sapiens)  Phage library screen NGS readout, BLANK                   0
2  DPAIYQCSLAADICSTY  RNF31 PUB domain (Homo sapiens)  Phage library screen NGS readout, BLANK                   0
